Origin of measurements: the supplement of paper PMC6555819

The entries below come with measured PBM binding z-score values attached.
Tested on: RXRa DBDmut IVT, anti-RXR (DBD mutation: RXRa K156A/R161A, NR concentration 90 nM)
methodSummary: PBM binding z-score (relative to random genomic background probes); higher = stronger binding; sequences stand for … in GC…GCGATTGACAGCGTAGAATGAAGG
experimentalReadout: PBM binding z-score

GCTCGGAGGACAAGGACAGAGCTTTGTCCGTAGA	-0.45
TCTAGTTGGTCACGGAGGTCACACAAGACGGGTA	1.22
GGAACGAGGGCAAAGTTGATAACATCTGTCGACG	2.93
CGAACTAGGTCAGAACAGGACAATGAAGGATGAT	0.605
ATACCAAGGTGATCGTGAGGTCGTTGAAACTAAC	0.72
TCATATAGGTAATACAGGAGAAAGTCGGCATCTA	1.48
ATCTCTAGGTAATAGTTCAGTGAATCCCGAGGAT	0.172
TCTGCAAGGTCAACGATGGTCAGCTAATCTGCTA	2.83
AGAATGAGGTTATGCGTAGATCAGGGAAGAAAGT	1.23
ACAGACAGGTGATGAAGGTAACTGAGGCTATCAT	-0.383
CAAACTAGCTCACGAAAGGTCAAAGTCGAATGAC	1.31
AATATTAGTTGAGACGAGGGCAACCGATAGGTTG	0.47
